Assay: qHTS assay to identify small molecule agonists of the estrogen related receptor signaling pathway with the pleiotropic PPARgamma coactivator (PGC) from Tox21 10K library (AID 1224842); note: nearly all actives have a fitted effect of over 15% in size
Conditions: PGC/ERR reporter cell line, luciferase ONE-Glo, 18 h; series mostly up to 92.4 µM
Results filed as inconclusive are left out. Activity calls are given as the source filed them. Calls come from the whole dose curve; as a rule, active = well fitted activation curve with a large enough effect in the repeat runs; inconclusive = weak or mixed curves, or effect the other way; inactive = no such curve, though single readings can be large or run the other way.
Property name: outcome

1. O=C(O)CCCc1c[nH]c2ccccc12 | inactive
2. O=C1CC[C@@H](C(=O)O)N1 | inactive
3. CCCCCCCCCCCSCC(=O)O | inactive
4. COc1ccc(/C=C/C(=O)c2ccc(OC)cc2OC)cc1 | inactive
5. CNCc1ccc(NC(=O)c2c[nH]c3c2C(=O)CCC3)cc1 | inactive
6. O[C@@H](CNC[C@H](O)[C@H]1CCc2cc(F)ccc2O1)[C@@H]1CCc2cc(F)ccc2O1 | inactive
7. CN1CCCN(C(c2ccccc2)c2ccc(Cl)cc2)CC1 (configuration not stated) | inactive
8. CCN(CC)CCOc1ccccc1C(=O)CCc1ccccc1 | inactive
9. CCCCCCC(O)CCOC(C)=O (configuration not stated) | inactive
10. Nc1ccc(NC(=O)c2ccc(N)cc2)cc1 | inactive
11. CN=C(N)NC(=O)Nc1c(C)cccc1C | inactive
12. CC(=O)OCC1=C(C(=O)O)N2C(=O)[C@@H](NC(=O)CSc3ccncc3)[C@H]2SC1 | inactive

###

Assay: qHTS assay for identifying genotoxic compounds that show differential cytotoxicity against isogenic chicken DT40 cell lines with known DNA damage response pathways - Rad54/Ku70 mutant cell line (AID 743015); note: nearly all actives have a fitted effect of over 60% in size
Settings: DT40 Rad54/Ku70 mutant viability, CellTiter-Glo, 40 h; series mostly up to 66.8 µM
Inconclusive results are not listed. Active and inactive are the calls of the source. Calls come from the whole dose curve; as a rule, active = well fitted cell-killing curve with a large enough effect in the repeat runs; inconclusive = weak or mixed curves; inactive = no such curve, though single readings can be large or run the other way.
Possible outcomes: True = active, False = inactive

1) CNS(=O)(=O)c1cc(C(=O)N2CCC(CCN3C4CCC3CC(n3c(C)nc5ccccc53)C4)(c3cccc(F)c3)CC2)c(Cl)cc1F (configuration not stated) | True
2) O=C(NC(Cc1cc(=O)[nH]c2ccccc12)C(=O)O)c1ccc(Cl)cc1 (configuration not stated) | False
3) CCCCC[C@H](O)/C=C/[C@H]1[C@H](O)CC(=O)[C@@H]1C/C=C\CCCC(=O)O | False
4) COC(=O)c1sccc1S(N)(=O)=O | False
5) COc1cc(NC(C)CCCN)c2ncccc2c1 (configuration not stated) | True
6) O[C@@H](CNC[C@H](O)[C@H]1CCc2cc(F)ccc2O1)[C@@H]1CCc2cc(F)ccc2O1 | True
7) O=C1OC(=O)c2c(Br)c(Br)c(Br)c(Br)c21 | False
8) CCN(CC)C(=O)N1CCN(C)CC1 | False
9) CCC(C)(C)C(=O)O | False
10) CC(=O)c1ccc[nH]1 | False
11) CC(C)COC(=O)COc1cc(Cl)c(Cl)cc1Cl | False
12) Cc1cccc(C)c1NC(=O)c1cc(S(N)(=O)=O)c(Cl)cc1O | False

###

Assay: qHTS assay to identify small molecule agonists of the NFkB signaling pathway - cell viability counter screen (AID 1159515); note: nearly all actives have a fitted effect of over 55% in size
Conditions: NFkB-bla ME-180 viability, CellTiter-Glo luminescence, 5 h; series mostly up to 61 µM
Results filed as inconclusive are left out. Active and inactive are the calls of the source. Calls come from the whole dose curve.
Possible outcomes: active, inactive

1. CCCCCCCCCCCSCC(=O)O | inactive
2. COC(CC(C)CCCC(C)(C)O)OC (configuration not stated) | inactive
3. CCN(CC)CCOC(=O)C(c1ccccc1)c1ccccc1 | inactive
4. Cc1cn([C@H]2C[C@H](F)[C@@H](CO)O2)c(=O)[nH]c1=O | inactive
5. CCCCCCCC/C=C\CCCCCCCC(=O)OCCO | inactive
6. NC(=O)c1ccccc1[N+](=O)[O-] | inactive
7. CSSc1ccoc1C | inactive
8. CCCCOC(=O)CCCCC(=O)OCCCC | inactive
9. SCCc1cnccn1 | inactive
10. Nc1nc(-c2ccc([N+](=O)[O-])cc2)cs1 | inactive
11. CC(C)(C)NCC(O)COc1cccc2c1C[C@H](O)[C@H](O)C2 (some centres not stated) | inactive
12. Cc1ccc(N(CC2=NCCN2)c2cccc(O)c2)cc1 | inactive
13. [Cl][Nd]([Cl])[Cl] | inactive
14. CCCc1nc2c(C)cc(-c3nc4ccccc4n3C)cc2n1Cc1ccc(-c2ccccc2C(=O)O)cc1 | inactive
15. CC1=C2[C@@H]([C@H](C)CC[C@H]2/C=C(\C)C(=O)O)[C@H](O)C1 | inactive
16. O=C(O)CCCc1c[nH]c2ccccc12 | inactive
17. O=C(O)c1cccc(Oc2ccccc2)c1 | inactive
18. O=C(CCS)OCC(COC(=O)CCS)(COC(=O)CCS)COC(=O)CCS | inactive
19. O=C(c1ccccc1)c1ccc(O)cc1 | inactive
20. COc1ccc(CCN(C)CCCN2CCc3cc(OC)c(OC)cc3CC2=O)cc1OC | inactive
21. CCC(=O)OCc1ccc(OC)cc1 | inactive
22. CCCCOCCOC(=O)c1cccnc1 | inactive
23. CCCCC(CC)COS(=O)(=O)O (configuration not stated) | inactive
24. CCCOC(=O)c1c(Cl)c(Cl)c(Cl)c(Cl)c1C(=O)OCCC | inactive
25. CCCCCCCCCCCCCOS(=O)(=O)O | active
26. CCN(CC)c1ccc(C(=C2C=CC(=[N+](CC)CC)C=C2)c2ccc(S(=O)(=O)O)cc2S(=O)(=O)[O-])cc1 | active
27. Nc1ccn([C@H]2CS[C@@H](CO)O2)c(=O)n1 | inactive
28. Cc1ccc(S(=O)(=O)NC(=O)NC2CCCCC2)cc1 | inactive
29. N[C@@H](Cc1cc(I)c(O)c(I)c1)C(=O)O | inactive
30. COc1ccc2nc(S(=O)Cc3ncc(C)c(OC)c3C)[nH]c2c1 (configuration not stated) | inactive
31. CNS(=O)(=O)c1cc(C(=O)N2CCC(CCN3C4CCC3CC(n3c(C)nc5ccccc53)C4)(c3cccc(F)c3)CC2)c(Cl)cc1F (configuration not stated) | active
32. CC(=O)C(=O)CC(C)C | inactive
33. C1=CCC2CC=CC2C1 (configuration not stated) | inactive
34. CCNc1nc(N)nc(Cl)n1 | inactive
35. CCCCCC | inactive
36. Nc1ccc(S(=O)(=O)NCc2ccccc2)cc1 | inactive
37. CC(=O)NCCO | inactive

###

Experiment: qHTS assay to identify small molecule antagonists of the estrogen receptor alpha (ER-alpha) signaling pathway using the BG1 cell line (AID 743080);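 note: BG1 cells stimulated with 17beta-estradiol alongside compound; nearly all actives have a fitted effect of over 25% in size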
Conditions: BG1Luc4E2 ERE-luciferase antagonist mode, luminescence; series mostly up to 70.3 µM
Results filed as inconclusive are left out. Activity calls are given as the source filed them. The call rests on the fitted dose curve.
Possible outcomes: Y (active), N (inactive)

1) COc1cc(OC)c2ccc(=O)oc2c1 | N
2) O=C(O)CCS | N
3) CNc1c2c(nn1C)CCCC2 | N
4) NC(=O)c1ccccc1[N+](=O)[O-] | N
5) CC(C)C(O)C(C)(C)CO (stereo unspecified) | N
6) [Cl][Nd]([Cl])[Cl] | N
7) CC1C(C)(C)C2=C(C(=O)CCC2)C1(C)C (stereo unspecified) | N
8) CC(=O)OCCC(C)CC(C)(C)C (stereo unspecified) | N
9) CC(C)(C)S | N
10) C=CC(=O)NC(C)C | N
11) Cc1ccc(N(CCO)CCO)cc1 | N
12) C=CCOC(=O)COCCC(C)C | N
13) CC[C@H]1OC(=O)[C@H](C)[C@@H](O[C@H]2C[C@@](C)(OC)[C@@H](O)[C@H](C)O2)[C@H](C)[C@@H](O[C@@H]2O[C@H](C)C[C@H](N(C)C)[C@H]2O)[C@](C)(O)C[C@@H](C)/C(=N\OCOCCOC)[C@H](C)[C@@H](O)[C@]1(C)O | N
14) CCCc1nc2c(C)cc(-c3nc4ccccc4n3C)cc2n1Cc1ccc(-c2ccccc2C(=O)O)cc1 | N
15) COC(=O)C1=C(C)NC(C)=C(C(=O)OC(C)(C)CN(C)CCC(c2ccccc2)c2ccccc2)C1c1cccc([N+](=O)[O-])c1 (stereo unspecified) | Y
16) Cc1ccc(Nc2c(F)cccc2Cl)c(CC(=O)O)c1 | N
17) Cc1ccc(NC(=O)N(C)C)cc1NC(=O)N(C)C | N
18) COc1cc(NS(=O)(=O)c2ccc(N)cc2)nc(C)n1 | N
19) c1ccc(CCCc2ccncc2)cc1 | N
20) O=C(O)CNC(=O)c1ccccc1I | N
21) c1ccc2sc(SSc3nc4ccccc4s3)nc2c1 | N
22) CC(C)N=C=NC(C)C | N
23) CC(C)(C)NCC(O)COc1cccc2c1C[C@H](O)[C@H](O)C2 (stereo partly specified) | N
24) Cc1cccc2sc(N)nc12 | N
25) O=C1[C@@H]2[C@H]3CC[C@H](C3)[C@@H]2C(=O)N1CCCCN1CCN(c2ncccn2)CC1 | N
26) O=C(O)CO | N
